- Measured Target: T1, CD3 epsilon homodimer protein (UniProt P07766 23-126)
- T1 construct: also called CD3 (CD3 epsilon)
- T1 sequence (P07766 23-126): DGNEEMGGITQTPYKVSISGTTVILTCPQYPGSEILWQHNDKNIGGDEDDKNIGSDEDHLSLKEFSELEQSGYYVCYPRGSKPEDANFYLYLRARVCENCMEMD
- Test Details: SPR Biacore T200, CD3e homodimer on chip, vs unaltered GLS3000 antibody
Catalogue of ratio of amounts bound (Z=Y/X) readings, one per entry.
Provide a numeric answer; units are not to be included.

Known ratio of amounts bound (Z=Y/X) results, listed for orientation:
>  <Binder>
GLS3000 T31I (antibody, name in Kabat numbering, V domains shown, one-arm IgG as m2) VH: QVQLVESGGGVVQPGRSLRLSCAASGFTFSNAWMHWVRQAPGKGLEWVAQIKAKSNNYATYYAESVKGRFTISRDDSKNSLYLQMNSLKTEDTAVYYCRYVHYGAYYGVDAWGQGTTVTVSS VL: DIVMTQSPLSLPVTPGEPASISCRSSQSLVHSNRNIYLHWYQQKPGQAPRLLIYKVSNRFSGVPDRFSGSGSGTDFTLKISRVEAEDVGVYYCGQGTQVPYTFGQGTKLEIK

>  <ratio of amounts bound (Z=Y/X)>
0.97

$$$$
>  <Binder>
GLS3000 S26P (antibody, name in Kabat numbering, V domains shown, one-arm IgG as m2) VH: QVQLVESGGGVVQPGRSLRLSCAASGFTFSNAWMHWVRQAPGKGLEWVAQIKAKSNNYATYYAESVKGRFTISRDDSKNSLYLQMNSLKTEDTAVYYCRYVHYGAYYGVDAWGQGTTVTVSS VL: DIVMTQSPLSLPVTPGEPASISCRSPQSLVHSNRNTYLHWYQQKPGQAPRLLIYKVSNRFSGVPDRFSGSGSGTDFTLKISRVEAEDVGVYYCGQGTQVPYTFGQGTKLEIK

>  <ratio of amounts bound (Z=Y/X)>
0.78

$$$$

Indicate its recorded ratio of amounts bound (Z=Y/X); the binder in question is GLS3000 R77S (antibody, name in Kabat numbering, V domains shown, one-arm IgG as m2) VH: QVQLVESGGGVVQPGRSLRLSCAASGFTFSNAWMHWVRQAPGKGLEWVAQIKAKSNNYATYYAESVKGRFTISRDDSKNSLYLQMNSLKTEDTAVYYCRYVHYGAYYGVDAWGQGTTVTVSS VL: DIVMTQSPLSLPVTPGEPASISCRSSQSLVHSNRNTYLHWYQQKPGQAPRLLIYKVSNRFSGVPDRFSGSGSGTDFTLKISSVEAEDVGVYYCGQGTQVPYTFGQGTKLEIK
0.92
